Record form. Attribute: Inhibition %. Fill in for each entry.
Tested on: Candida antartica
Test: Antifungal assay, growth inhibition by OD in 96 well plates
Format: cell-based
Details: 5 mg/ml sophorolipid solution, 48 hours at 30° C., OD at 400 nm vs control wells
Description: Sophorolipid solution was prepared by adding 15 mg of compound in 1 ml sucrose solution, pH 8.5. All assay were carried out in 96 well plates using Yeast extract-Maltose medium. […] Following incubation, the wells were measured for Optical Density (OD) at 400 nm using microtitre plate readers. Percent (%) inhibition of growth was calculated corresponding to the OD in control wells containing no sophorolipid.
One number for each entry, in %.

MOLECULE	RECORDED VALUE
CCCCCCOC(=O)CCCCCCC/C=C\CCCCCCC(C)O[C@@H]1O[C@H](CO)[C@@H](O)[C@H](O)[C@H]1O[C@@H]1O[C@H](CO)[C@@H](O)[C@H](O)[C@H]1O (relative stereo)	100

Next, consider the following molecule.
Problem: Item COC(=O)CCCCCCC/C=C\CCCCCC[C@H](C)O[C@@H]1O[C@H](CO)[C@@H](O)[C@H](O)[C@H]1O[C@@H]1O[C@H](CO)[C@@H](O)[C@H](O)[C@H]1O (relative stereo) has what recorded Inhibition %?
Result: 71

These data points were gathered from patent US8796228B2.
